- EXPERIMENT_SUMMARY: Cell Viability - LYMP2-020 (AID 986);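 further: cells exposed to compound for 24 h at 37 °C; nearly all actives have a fitted effect of over 55% in size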
- TEST_PARAMETERS: series mostly up to 92.2 µM
Records with an inconclusive call do not appear. The source made the active and inactive calls. The call rests on the fitted dose curve; in most records, active means well fitted cell-killing curve with a large enough effect; inconclusive means small, poorly fitted or top-dose-only effect; inactive means flat fitted curve, though single readings scatter.
The reply should name one outcome from active, inactive

Reference set (5 entries):
MOLECULE	CLASS_ASSIGNMENT
O=C(O)CCC(=O)C(=O)O	inactive
CC(O)CO (configuration not stated)	inactive
Cc1ccccc1	inactive
CC1=C(/C=C/C(C)=C/C=C/C(C)=C/CO)C(C)(C)CCC1	active
CCOC(C)=O	inactive

Prompt: Outcome logged for `Nc1ccn([C@H]2CS[C@@H](CO)O2)c(=O)n1` in this assay:
Response: inactive

Prompt: // query: `CCCCCCCC(=O)O`
Response: inactive

----------
- Test system: Hek293T
- EXPERIMENT_SUMMARY: Primary qHTS to identify gynecologic anti-cancer compounds using libraries of approved drugs and bioactive compounds (AID 1345084); further: on the % scale 0 is the no-effect control and ±100 the full control effect; nearly all actives have a fitted effect of over 55% in size
- TEST_PARAMETERS: Gynecologic cancer cell panel viability, ATPlite luminescence, 48 h, control line for the selectivity index; series mostly up to 57.5 µM
- Description: National Center for Advancing Translational Sciences [NCATS] Assay Overview: Chemotherapeutic drug responses vary from cancer to cancer and from patient to patient. […] ATPlite is a luminescence based assay reliant on the conversion of a luciferase substrate to light in the presence of ATP. As a cytotoxic compound will suppress growth and decrease the number of cells, the concentration of ATP will decrease, and less light signal will be detected in the well. […]
Results filed as inconclusive are left out. Activity calls are given as the source filed them. Calls follow the shape of the dose curve; as a rule, active = well fitted cell-killing curve with a large enough effect; inconclusive = small, poorly fitted or top-dose-only effect, or effect the other way; inactive = flat fitted curve, though single readings scatter.
MEASUREMENT_LABEL: activity change, negative = cytotoxicity

COMPOUND	OBSERVED
COc1ccc([C@H]2Cc3cccc(O)c3C(=O)O2)cc1	inactive
C=C1CCC2C(C)(C(=O)O)CC(O)CC2(C)C1CC/C(C)=C/C(=O)O (stereo not given)	inactive
CCC/C=C/C(=O)O[C@H]1CC(C)(C)CC2[C@]13[C@H](O)O[C@@]21CCC2[C@@]4(C)CC[C@H](O[C@@H]5O[C@H](C(=O)O)[C@@H](O)[C@H](O[C@@H]6O[C@H](CO)[C@H](O)[C@H](O)[C@H]6O[C@@H]6O[C@@H](C)[C@H](O)[C@@H](O)[C@H]6O[C@@H]6OC[C@](O)(CO)[C@H]6O)[C@H]5O[C@@H]5O[C@H](CO)[C@H](O)[C@H](O)[C@H]5O)C(C)(C)C4CC[C@@]2(C)[C@]1(C)C[C@H]3OC(C)=O (stereo not given in full)	-6.65% [at 6.55 µM] (inactive)
C=CC(C)(O)CC/C=C(\C)C(=O)OC1CC2(C(=O)O)CCC3(C)C(=CCC4C5(C)CCC(OC6OC(COC7OCC(O)C(O)C7O)C(O)C(OC7OCC(O)C(O)C7O)C6OC6OC(CO)C(O)C(O)C6OC6OCC(O)C(O)C6O)C(C)(C)C5CCC43C)C2CC1(C)C (stereo not given)	-1.17% [at 6.55 µM] (inactive)

Now consider a different compound.
Prompt: Lab request: please report activity change, negative = cytotoxicity under test system Hek293T for CC1(C)C(O)CCC2(C)C1C(O)C=C1COC(=O)C12O (stereo not given)
Response: inactive

----------
- EXPERIMENT_SUMMARY: qHTS drug screen for cell cycle checkpoint inhibitors in PARPi-resistant BRCA-mutant ovarian cancer cell lines. (AID 1963452)
- TEST_PARAMETERS: PEO1/OlaR viability, CellTiter-Glo luminescence, 96 h; active compounds read low
- Description: Women's Malignancies Branch, Center for Cancer Research (CCR), National Cancer Institute (NCI), National Institutes of Health (NIH), Bethesda, MD Poly (ADP-ribose) polymerase inhibitors (PARPis) have changed the treatment paradigm in breast cancer gene (BRCA) - mutant high-grade serous ovarian carcinoma (HGSC). […] 6; Detection; Luminescence, PHERAstar (BMG Labtech) plate reader. […] 6. Luminescence readings were taken using PHERAstar (BMG Labtech). […]
List of Z-AUC values.
Write the number on its own, no unit after it.

A selection of reference data follows.
COMPOUND	MEASUREMENT_LABEL	OBSERVED
C[C@H]1CN(C[C@H](Cc2ccccc2)C(=O)NCC(=O)O)CC[C@@]1(C)c1cccc(O)c1	Z-AUC	-0.66
NC1CCC(N[C@@H]2C[C@H]2c2ccccc2)CC1 (some centres undefined)	Z-AUC	-1.43
CCOc1cc2ncc(C#N)c(Nc3ccc(OCc4ccccn4)c(Cl)c3)c2cc1NC(=O)/C=C/CN(C)C	Z-AUC	0.57

Prompt: Record request: Z-AUC value, item `O=c1ccn([C@@H]2O[C@H](CO)[C@@H](O)[C@H]2O)c(=O)[nH]1`
Response: 1.3

----------
- Tested on: CASKI
- EXPERIMENT_SUMMARY: Primary qHTS to identify gynecologic anti-cancer compounds using libraries of approved drugs and bioactive compounds (AID 1345084); further: on the % scale 0 is the no-effect control and ±100 the full control effect; nearly all actives have a fitted effect of over 55% in size
- TEST_PARAMETERS: Gynecologic cancer cell panel viability, ATPlite luminescence, 48 h; series mostly up to 57.5 µM
Results filed as inconclusive are left out. The source made the active and inactive calls. Calls follow the shape of the dose curve; as a rule, active = well fitted cell-killing curve with a large enough effect; inconclusive = small, poorly fitted or top-dose-only effect, or effect the other way; inactive = flat fitted curve, though single readings scatter.
MEASUREMENT_LABEL: activity change, negative = cytotoxicity

A selection of reference data follows.
COMPOUND	activity change, negative = cytotoxicity
C=C[C@H]1[C@H](O[C@@H]2O[C@H](CO)[C@@H](O)[C@H](O)[C@H]2O)OC=C(C(=O)OC)[C@H]1C[C@@H]1N[C@H](C(=O)O)Cc2c1[nH]c1ccccc21	inactive
C[C@@H]1CC[C@]2(C(=O)O[C@@H]3O[C@H](CO)[C@@H](O)[C@H](O)[C@H]3O)CC[C@]3(C)C(=CCC4[C@@]5(C)C[C@@H](O)[C@H](O)C(C)(C)C5CC[C@]43C)C2[C@]1(C)O (some centres not stated)	inactive
COC1=Cc2c(nc3n(c2=O)C(C)C(=O)NC3(O)C(C)C)OC=C1 (configuration not stated)	inactive
C=CC1(C)C=C2C(=O)CC3C(C)(C)CCCC3(C(=O)O)C2(O)CC1 (configuration not stated)	inactive
C[C@H]1CC[C@@]2(OC1)O[C@H]1CC3C4CC=C5C[C@H](O)C[C@@H](O[C@@H]6O[C@@H](C)[C@H](O)[C@@H](O)[C@H]6O[C@@H]6O[C@@H](C)[C@H](O)[C@@H](O)[C@H]6O)[C@]5(C)C4CC[C@]3(C)[C@H]1[C@@H]2C (some centres not stated)	inactive

Prompt: Form field: reported activity change, negative = cytotoxicity of `CC1=C2[C@@H]([C@H](C)CC[C@H]2/C=C(\C)C(=O)O)[C@H](O)C1`
Response: inactive

Prompt: Please do the same for CC(=O)NC(CCC(=O)O)C(=O)NCCc1ccc(O)cc1 (configuration not stated) as well.
Response: inactive

----------
- Test system: CP305
- EXPERIMENT_SUMMARY: qHTS profiling for inhibitors of Plasmodium falciparum proliferation (AID 504749); further: nearly all actives have a fitted effect of over 60% in size
- TEST_PARAMETERS: P. falciparum in erythrocytes, SYBR Green DNA, 72 h; series mostly up to 28.7 µM
Results filed as inconclusive are left out. Activity calls are given as the source filed them. Calls come from the whole dose curve; as a rule, active = well fitted inhibition curve with a large enough effect; inconclusive = small, poorly fitted or top-dose-only effect; inactive = flat fitted curve, though single readings scatter.
Parameter call: string, one of active, inactive

Please review the entries below; each comes with its answer.
COMPOUND	CLASS_ASSIGNMENT
COCC(=O)Nc1cc(Sc2ccccc2)ccc1N=C(NC(=O)OC)NC(=O)OC	inactive
CCN(CC)Cc1cc(Nc2ccnc3cc(Cl)ccc23)ccc1O	active
CCCCC(CC)COC(=O)CC(C(=O)OCC(CC)CCCC)S(=O)(=O)O (stereo unspecified)	inactive
CC(NNC(=O)c1ccccc1)c1ccccc1 (stereo unspecified)	inactive
Cc1cc(C(=O)NNCc2ccccc2)no1	inactive

Prompt: What did this assay record as the result for `CCCCCCCC/C=C\CCCCCCCC(=O)O` ?
Response: inactive

----------
- Tested on: NIH3T3
- EXPERIMENT_SUMMARY: Cytotoxic Profiling of Annotated Libraries Using Quantitative High-Throughput Screening (AID 1296008); further: on the % scale 0 is the no-effect control and ±100 the full control effect; nearly all actives have a fitted effect of over 60% in size
- TEST_PARAMETERS: Five cell lines viability, CellTiter-Glo ATP luminescence, 48-72 h; active compounds read low
Inconclusive results are not listed.
MEASUREMENT_LABEL: max response (%)
Write down the numeric answer in % and omit the unit.

A selection of reference data follows.
COMPOUND	QUANTITY_UNIT	max response
CC(O)(CC(=O)O)CC(=O)O[C@@H]1[C@@H](O)[C@H](OCCc2ccccc2)O[C@H](CO)[C@H]1O (stereo partly specified)	%	1.93
COc1ccccc1-n1c(SCC(=O)Nc2nc3ccc(C)cc3s2)nc2c(c1=O)SCC2	%	3.32
Cc1c(CN(C)C(=O)/C=C/c2cnc3c(c2)CCC(=O)N3)oc2ccccc12	%	-2.06
CC1(C)CC2C3=CCC4C5(C)CCC(OC6OC(C(=O)O)C(O)C(O)C6OC6OC(CO)C(O)C(O)C6OC6OC(CO)C(O)C(O)C6O)C(C)(CO)C5CCC4(C)C3(C)CCC2(C)C(OC2OCC(O)C(OC3OC(CO)C(O)C(O)C3O)C2O)C1O (stereo unspecified)	%	-17.3

Prompt: Observed max response on NIH3T3 for `CCOC(=O)c1c(C)nn(-c2cccc([N+](=O)[O-])c2)c1C` , please.
Response: 3.21

Prompt: Please answer likewise for C[C@@H]1O[C@@H](O[C@H]2[C@H](OC(=O)[C@]34CCC(C)(C)C[C@H]3C3=CCC5[C@@]6(C)C[C@H](O)[C@H](O[C@@H]7O[C@H](CO[C@@H]8OC[C@H](O)[C@H](O)[C@H]8O)[C@@H](O)[C@H](O)[C@H]7O)C(C)(C)C6CC[C@@]5(C)[C@]3(C)C[C@H]4O)OC[C@@H](O)[C@@H]2O)[C@H](O)[C@H](O[C@@H]2OC[C@](O)(CO)[C@H]2O)[C@H]1O[C@@H]1OC[C@H](O)[C@H](O[C@@H]2OC[C@@H](O)[C@H](O)[C@H]2O)[C@H]1O (stereo partly specified)
Response: -1.57
